Target: T1, EsCas13d, nuclease-dead (Eubacterium siraeum, UniProt B0MS50, R295A;H300A;R849A;H854A)
T1 sequence: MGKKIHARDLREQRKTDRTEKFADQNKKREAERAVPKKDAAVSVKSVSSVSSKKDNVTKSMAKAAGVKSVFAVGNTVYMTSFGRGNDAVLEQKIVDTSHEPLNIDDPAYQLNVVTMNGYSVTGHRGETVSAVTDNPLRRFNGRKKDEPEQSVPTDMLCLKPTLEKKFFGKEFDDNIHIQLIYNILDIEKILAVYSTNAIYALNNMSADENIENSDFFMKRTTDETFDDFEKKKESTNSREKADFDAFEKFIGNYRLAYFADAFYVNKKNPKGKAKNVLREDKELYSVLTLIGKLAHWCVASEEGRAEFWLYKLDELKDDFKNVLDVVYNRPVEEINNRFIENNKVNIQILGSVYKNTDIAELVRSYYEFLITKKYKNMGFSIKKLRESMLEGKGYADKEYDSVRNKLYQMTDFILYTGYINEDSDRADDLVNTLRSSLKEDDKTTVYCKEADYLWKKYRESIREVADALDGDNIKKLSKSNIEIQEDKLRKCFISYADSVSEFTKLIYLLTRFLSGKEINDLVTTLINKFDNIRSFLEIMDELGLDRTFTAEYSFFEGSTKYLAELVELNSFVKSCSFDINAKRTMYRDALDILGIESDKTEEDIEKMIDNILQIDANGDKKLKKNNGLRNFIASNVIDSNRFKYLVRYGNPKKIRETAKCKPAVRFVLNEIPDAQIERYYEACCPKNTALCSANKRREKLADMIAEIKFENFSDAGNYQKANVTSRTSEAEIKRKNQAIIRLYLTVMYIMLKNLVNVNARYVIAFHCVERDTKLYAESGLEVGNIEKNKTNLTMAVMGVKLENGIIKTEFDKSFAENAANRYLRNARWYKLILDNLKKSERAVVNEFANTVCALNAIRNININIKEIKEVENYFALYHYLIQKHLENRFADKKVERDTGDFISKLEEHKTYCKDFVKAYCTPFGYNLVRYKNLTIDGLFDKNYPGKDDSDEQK
Assay: crRNA (strand 1, pre-loaded); Mg2+; 40 mM Tris-HCl pH 7.5, 150 mM NaCl, 6 mM MgCl2, 1 mM DTT, 0.1% Tween-20, 0.2 mg/ml BSA; 25 C; 10 min per concentration, then washed
Conditions: tags: His6-TwinStrep-SUMO cleaved; N-terminal SNAP kept (SNAP-Surface 488); label: 3' end held by stalled T7 RNA polymerase
Please respond with reported Kd for every item in the list.
# number only, unit nM dropped from output

Input line: # Kd lookup, item target 1 MT 5'PFS GAC 3'PFS UAC (mixed) RNA 1: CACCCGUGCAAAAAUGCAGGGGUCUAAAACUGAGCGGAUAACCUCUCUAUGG RNA 2: GGGAAUGGAUCCACAUCUACGAAUUCGACCCAUAGAGAGGUUAUCCGCUCAUACAGAUCGGAAGAGCACACGU
Output line: 19

Input line: Continue with target 1 MT 5'PFS GGG 3'PFS UUG (mixed) RNA 1: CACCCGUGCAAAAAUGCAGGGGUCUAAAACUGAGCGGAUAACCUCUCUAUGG RNA 2: GGGAAUGGAUCCACAUCUACGAAUUCGGGCCAUAGAGAGGUUAUCCGCUCAUUGAGAUCGGAAGAGCACACGU
Output line: 7.3

Input line: Continue with target 1 insU 3' of 18,insC 3' of 1 (mixed) RNA 1: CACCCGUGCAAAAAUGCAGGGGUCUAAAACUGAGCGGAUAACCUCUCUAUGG RNA 2: GGGAAUGGAUCCACAUCUACGAAUUCGUACCAUAUGAGAGGUUAUCCGCUCACCCGAGAUCGGAAGAGCACACGU
Output line: 23.5

Input line: Continue with target 1 C6A,G13A (mixed) RNA 1: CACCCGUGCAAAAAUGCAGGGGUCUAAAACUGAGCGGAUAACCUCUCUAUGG RNA 2: GGGAAUGGAUCCACAUCUACGAAUUCGUACCAUAGAGAAGUUAUCAGCUCACCGAGAUCGGAAGAGCACACGU
Output line: 6.6

Input line: Continue with target 1 insA 3' of 19,insA 3' of 8 (mixed) RNA 1: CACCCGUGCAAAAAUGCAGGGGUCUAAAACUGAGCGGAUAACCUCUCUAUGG RNA 2: GGGAAUGGAUCCACAUCUACGAAUUCGUACCAUAAGAGAGGUUAUACCGCUCACCGAGAUCGGAAGAGCACACGU
Output line: 31.1

Input line: Continue with target 1 MT 5'PFS GAG 3'PFS UCU (mixed) RNA 1: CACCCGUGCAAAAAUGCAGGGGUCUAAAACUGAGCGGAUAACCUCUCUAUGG RNA 2: GGGAAUGGAUCCACAUCUACGAAUUCGAGCCAUAGAGAGGUUAUCCGCUCAUCUAGAUCGGAAGAGCACACGU
Output line: 29

Input line: Continue with target 1 insC 3' of 22,insA 3' of 13 (mixed) RNA 1: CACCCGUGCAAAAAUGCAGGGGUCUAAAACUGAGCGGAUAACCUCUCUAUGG RNA 2: GGGAAUGGAUCCACAUCUACGAAUUCGUACCCAUAGAGAGAGUUAUCCGCUCACCGAGAUCGGAAGAGCACACGU
Output line: 13.4

Input line: Continue with target 2 MT 5'PFS UUA 3'PFS AAU (mixed) RNA 1: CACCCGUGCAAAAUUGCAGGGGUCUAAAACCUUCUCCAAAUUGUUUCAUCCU RNA 2: GGGAAUGGAUCCACAUCUACGAAUUCUUAAGGAUGAAACAAUUUGGAGAAGAAUAGAUCGGAAGAGCACACGU
Output line: 18
